system: NCI-H211; test: Anticancer activity against human NCI-H211 cells; type: functional, cell-based
recorded endpoint: pIC50
# pIC50 is unitless: minus log10 of the molar concentration; print number only

Entry Cc1nnn(C)c1-c1cnc2c3ccc(C(C)(C)O)cc3n([C@H](c3ccccc3)C3CCOCC3)c2c1 [EZOBRESIB] , pIC50 reported as 9.52

----------
system: HCC44; test: Anticancer activity against human HCC44 cells; type: functional, cell-based
recorded endpoint: IC50 (nM)
Supply the numeric figure in nM, leaving out any unit text.

Entry Cc1nnn(C)c1-c1cnc2c3ccc(C(C)(C)O)cc3n([C@H](c3ccccc3)C3CCOCC3)c2c1 [EZOBRESIB] , IC50 reported as 2.7
